target: von Hippel-Lindau disease tumor suppressor/Histone-lysine N-methyltransferase, H3 lysine-79 specific (Homo sapiens, UniProt Q8TEK3+P40337); assay: PROTAC activity at VHL/DOTIL in mixed-lineage leukemia rearranged (MLL-r) human THP-1 cells assessed as induction of DOT1L degradation by measuring fold change in DOTIL protein level at 0.3 uM incubated for 24 hrs by western blot analysis relative to control; format: cell-based
Sequence (P40337 whole entry, looked up): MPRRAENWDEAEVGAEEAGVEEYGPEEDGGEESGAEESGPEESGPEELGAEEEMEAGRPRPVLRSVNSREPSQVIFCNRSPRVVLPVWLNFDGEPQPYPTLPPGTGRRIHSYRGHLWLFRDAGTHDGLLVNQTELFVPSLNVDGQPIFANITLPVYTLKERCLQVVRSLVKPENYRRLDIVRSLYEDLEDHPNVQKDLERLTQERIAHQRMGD
Sequence (Q8TEK3 whole entry, looked up): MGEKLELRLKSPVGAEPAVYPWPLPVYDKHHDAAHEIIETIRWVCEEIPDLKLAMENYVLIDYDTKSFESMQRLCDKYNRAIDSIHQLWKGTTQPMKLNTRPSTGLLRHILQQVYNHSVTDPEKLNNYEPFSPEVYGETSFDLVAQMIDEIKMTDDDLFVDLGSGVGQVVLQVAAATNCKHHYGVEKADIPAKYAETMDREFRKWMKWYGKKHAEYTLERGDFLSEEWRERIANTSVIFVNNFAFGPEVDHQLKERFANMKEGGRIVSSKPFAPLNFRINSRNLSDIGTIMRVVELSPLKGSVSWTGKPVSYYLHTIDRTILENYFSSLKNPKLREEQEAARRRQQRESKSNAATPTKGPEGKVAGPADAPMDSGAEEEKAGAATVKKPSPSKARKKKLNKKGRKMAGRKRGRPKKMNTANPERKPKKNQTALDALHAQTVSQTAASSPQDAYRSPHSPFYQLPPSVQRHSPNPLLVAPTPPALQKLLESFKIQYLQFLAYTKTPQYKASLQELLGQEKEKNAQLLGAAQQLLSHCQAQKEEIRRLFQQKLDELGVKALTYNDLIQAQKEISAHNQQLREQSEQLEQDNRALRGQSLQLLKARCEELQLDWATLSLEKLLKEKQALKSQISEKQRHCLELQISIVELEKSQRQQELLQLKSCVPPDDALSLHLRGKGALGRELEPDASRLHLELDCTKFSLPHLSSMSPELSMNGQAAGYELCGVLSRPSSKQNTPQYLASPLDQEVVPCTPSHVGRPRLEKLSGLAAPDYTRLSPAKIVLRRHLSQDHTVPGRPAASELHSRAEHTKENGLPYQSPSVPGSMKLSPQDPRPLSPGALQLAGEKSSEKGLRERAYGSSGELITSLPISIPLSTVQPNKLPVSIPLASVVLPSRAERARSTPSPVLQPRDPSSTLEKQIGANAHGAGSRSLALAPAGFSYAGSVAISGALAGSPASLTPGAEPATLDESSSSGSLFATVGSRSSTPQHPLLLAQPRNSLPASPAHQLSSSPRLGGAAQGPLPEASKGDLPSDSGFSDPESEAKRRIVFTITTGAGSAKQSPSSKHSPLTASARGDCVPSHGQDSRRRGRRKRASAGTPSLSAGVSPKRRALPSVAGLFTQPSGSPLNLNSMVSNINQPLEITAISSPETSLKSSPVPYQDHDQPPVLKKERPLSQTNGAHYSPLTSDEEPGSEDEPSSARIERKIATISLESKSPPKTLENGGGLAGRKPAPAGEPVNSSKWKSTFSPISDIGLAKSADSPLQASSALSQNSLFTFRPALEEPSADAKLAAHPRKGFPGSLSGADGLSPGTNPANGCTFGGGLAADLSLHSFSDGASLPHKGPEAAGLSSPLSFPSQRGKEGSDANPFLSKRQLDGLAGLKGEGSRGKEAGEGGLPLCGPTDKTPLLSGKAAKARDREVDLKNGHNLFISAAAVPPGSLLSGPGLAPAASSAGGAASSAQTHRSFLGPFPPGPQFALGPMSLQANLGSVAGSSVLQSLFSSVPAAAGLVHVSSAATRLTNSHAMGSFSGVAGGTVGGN
READOUT TYPE: fold change (FC)

Answered cases to consult:
• Cc1ncsc1-c1ccc(CNC(=O)[C@@H]2C[C@@H](O)CN2C(=O)[C@@H](NC(=O)CCCCCNC(=O)COc2nc(N)nc(Nc3cc(S(N)(=O)=O)ccc3N[C@@H](c3cccc4c3OC(F)(F)O4)c3ncccc3Cl)n2)C(C)(C)C)cc1 = 1.52
• Cc1ncsc1-c1ccc(CNC(=O)[C@@H]2C[C@@H](O)CN2C(=O)[C@@H](NC(=O)CCCCCCCNC(=O)COc2nc(N)nc(Nc3cc(S(N)(=O)=O)ccc3N[C@@H](c3cccc4c3OC(F)(F)O4)c3ncccc3Cl)n2)C(C)(C)C)cc1 = 1.01

A = Cc1ncsc1-c1ccc(CNC(=O)[C@@H]2C[C@@H](O)CN2C(=O)[C@@H](NC(=O)CCCCCCNC(=O)COc2nc(N)nc(Nc3cc(S(N)(=O)=O)ccc3N[C@@H](c3cccc4c3OC(F)(F)O4)c3ncccc3Cl)n2)C(C)(C)C)cc1
B = Cc1ncsc1-c1ccc([C@H](CC(=O)NCCCCCCNC(=O)COc2nc(N)nc(Nc3cc(S(N)(=O)=O)ccc3N[C@@H](c3cccc4c3OC(F)(F)O4)c3ncccc3Cl)n2)NC(=O)[C@@H]2C[C@@H](O)CN2C(=O)[C@@H](NC(=O)C2(F)CC2)C(C)(C)C)cc1
For this pair, A and B , which shows a numerically higher fold change (FC)? # respond with the chosen item's label
A
(A: 0.99, B: 0.08)

A = Cc1ncsc1-c1ccc([C@H](CC(=O)NCCCNC(=O)COc2nc(N)nc(Nc3cc(S(N)(=O)=O)ccc3N[C@@H](c3cccc4c3OC(F)(F)O4)c3ncccc3Cl)n2)NC(=O)[C@@H]2C[C@@H](O)CN2C(=O)[C@@H](NC(=O)C2(F)CC2)C(C)(C)C)cc1
B = COc1nc(N)nc(Nc2cc(S(N)(=O)=O)ccc2N[C@@H](c2cccc3c2OC(F)(F)O3)c2ncccc2Cl)n1
Just tell me: smaller fold change (FC) value, A or B ? # respond with the chosen item's label
A
(A: 0.72, B: 1.29)

###

molecular target: von Hippel-Lindau disease tumor suppressor/Histone-lysine N-methyltransferase, H3 lysine-79 specific (Homo sapiens, UniProt Q8TEK3+P40337); experiment: PROTAC activity at VHL/DOTIL in mixed-lineage leukemia rearranged (MLL-r) human THP-1 cells assessed as induction of DOT1L degradation by measuring fold change in DOTIL protein level at 0.3 uM incubated for 24 hrs by western blot analysis relative to control; assay type: cell-based
READOUT TYPE: fold change (FC)

* CC(C)N(C[C@H]1O[C@@H](n2cnc3c(N)ncnc32)[C@H](O)[C@@H]1O)[C@H]1C[C@@H](CCc2nc3cc(C(C)(C)C)ccc3[nH]2)C1 | 1.07
* CC(=O)Nc1nc(Nc2cc(S(=O)(=O)NC(C)=O)ccc2N(C(C)=O)[C@@H](c2cccc3c2OC(F)(F)O3)c2ncccc2Cl)nc(OCC(=O)NCCCCCCNC(=O)C[C@H](NC(=O)C2CC(O)CN2C(=O)[C@@H](NC(=O)C2(F)CC2)C(C)(C)C)c2ccc(-c3scnc3C)cc2)n1 (single isomer, unassigned) | 1.1
* Cc1ncsc1-c1ccc(CNC(=O)[C@@H]2C[C@@H](O)CN2C(=O)[C@@H](NC(=O)CCCCNC(=O)COc2nc(N)nc(Nc3cc(S(N)(=O)=O)ccc3N[C@@H](c3cccc4c3OC(F)(F)O4)c3ncccc3Cl)n2)C(C)(C)C)cc1 | 0.99
* Cc1ncsc1-c1ccc(CNC(=O)[C@@H]2C[C@@H](O)CN2C(=O)[C@@H](NC(=O)CCCNC(=O)COc2nc(N)nc(Nc3cc(S(N)(=O)=O)ccc3N[C@@H](c3cccc4c3OC(F)(F)O4)c3ncccc3Cl)n2)C(C)(C)C)cc1 | 0.99
* Cc1ncsc1-c1ccc([C@H](CC(=O)NCCCCCCCCNC(=O)COc2nc(N)nc(Nc3cc(S(N)(=O)=O)ccc3N[C@@H](c3cccc4c3OC(F)(F)O4)c3ncccc3Cl)n2)NC(=O)[C@@H]2C[C@@H](O)CN2C(=O)[C@@H](NC(=O)C2(F)CC2)C(C)(C)C)cc1 | 0.52

P = Cc1ncsc1-c1ccc([C@H](CC(=O)NCCCCCNC(=O)COc2nc(N)nc(Nc3cc(S(N)(=O)=O)ccc3N[C@@H](c3cccc4c3OC(F)(F)O4)c3ncccc3Cl)n2)NC(=O)[C@@H]2C[C@@H](O)CN2C(=O)[C@@H](NC(=O)C2(F)CC2)C(C)(C)C)cc1
Q = Cc1ncsc1-c1ccc([C@H](CC(=O)NCCCCNC(=O)COc2nc(N)nc(Nc3cc(S(N)(=O)=O)ccc3N[C@@H](c3cccc4c3OC(F)(F)O4)c3ncccc3Cl)n2)NC(=O)[C@@H]2C[C@@H](O)CN2C(=O)[C@@H](NC(=O)C2(F)CC2)C(C)(C)C)cc1
R = Cc1ncsc1-c1ccc([C@H](CC(=O)NCCCCCCCNC(=O)COc2nc(N)nc(Nc3cc(S(N)(=O)=O)ccc3N[C@@H](c3cccc4c3OC(F)(F)O4)c3ncccc3Cl)n2)NC(=O)[C@@H]2C[C@@H](O)CN2C(=O)[C@@H](NC(=O)C2(F)CC2)C(C)(C)C)cc1
Arrange the 3 entries by fold change (FC) so the values rise. Use the labels to give the ranking in the order requested.
R, Q, P
(R: 0.36, Q: 0.58, P: 0.9)
